Recorded measurements of CC50, one per entry
System: PANC-1
Assay: Cytotoxicity against human PANC1 cells after 48 hrs by SRB assay
Format: functional
Conditions: PANC-1, 48 h, read-out: LC50 (the source's name)
Give the number; µM is assumed, so skip it.

C/C=C1\NC(=O)[C@H](Cc2ccc(F)cc2)NC(=O)[C@@H](C(C)C)NC(=O)[C@@H]([C@H](C)CC)NC(=O)[C@H](NC(=O)[C@H](NC(=O)[C@H](CCCN)NC(=O)[C@H]2CCCN2C(=O)[C@H](NC(=O)[C@@H](NC(=O)[C@@H](NC(=O)[C@H](NC(=O)CC[C@@H](C)CC)C(C)C)[C@@H](C)O)C(C)C)C(C)C)[C@H](C)CC)[C@H](C)OC(=O)[C@H](C(C)C)NC1=O; 1.58
C/C=C1\NC(=O)[C@H](Cc2ccccc2)NC(=O)[C@@H](C(C)C)NC(=O)[C@@H]([C@H](C)CC)NC(=O)[C@H](NC(=O)[C@H](NC(=O)[C@H](CCCN)NC(=O)[C@H]2CCCN2C(=O)[C@H](NC(=O)CNC(=O)[C@@H](NC(=O)[C@H](NC(=O)CCCC(C)C)C(C)C)[C@@H](C)O)C(C)C)[C@H](C)CC)[C@H](C)OC(=O)[C@H](C(C)C)NC1=O; 2.6
C/C=C1\NC(=O)[C@H](Cc2ccc(I)cc2)NC(=O)[C@@H](C(C)C)NC(=O)[C@@H]([C@H](C)CC)NC(=O)[C@H](NC(=O)[C@H](NC(=O)[C@H](CCCN)NC(=O)[C@H]2CCCN2C(=O)[C@H](NC(=O)[C@@H](NC(=O)[C@@H](NC(=O)[C@H](NC(=O)CC[C@@H](C)CC)C(C)C)[C@@H](C)O)C(C)C)C(C)C)[C@H](C)CC)[C@H](C)OC(=O)[C@H](C(C)C)NC1=O; 1.41
C/C=C1\NC(=O)[C@H](Cc2ccccc2)NC(=O)[C@@H](C(C)C)NC(=O)[C@@H]([C@H](C)CC)NC(=O)[C@H](NC(=O)[C@H](NC(=O)[C@H](CCCN)NC(=O)[C@H]2CCCN2C(=O)[C@H](NC(=O)[C@@H](NC(=O)[C@@H](NC(=O)[C@H](NC(=O)Cc2cc(F)cc(F)c2)C(C)C)[C@@H](C)O)C(C)C)C(C)C)[C@H](C)CC)[C@H](C)OC(=O)[C@H](C(C)C)NC1=O; 2.46

Proceed to the following item.
Give reported CC50 for C/C=C1\NC(=O)[C@@H](Cc2ccccc2)NC(=O)[C@H](C(C)C)NC(=O)[C@H]([C@H](C)CC)NC(=O)[C@@H](NC(=O)[C@@H](NC(=O)[C@@H](CCCN)NC(=O)[C@@H]2CCCN2C(=O)[C@@H](NC(=O)[C@H](NC(=O)[C@H](NC(=O)[C@@H](NC(=O)CCCC(C)C)C(C)C)[C@@H](C)O)C(C)C)C(C)C)[C@H](C)CC)[C@H](C)OC(=O)[C@H](C(C)C)NC1=O (PANC-1)
8.9

----------
Experiment: Cytotoxicity against human IGROV-ET cells after 48 hrs by SRB assay
Type: functional
Conditions: read-out: LC50 (the source's name)
Readout Kind: CC50 (nM)
State the answer as a number, implicitly in nM.

C/C=C1\NC(=O)[C@H](Cc2ccccc2)NC(=O)[C@@H](C(C)C)NC(=O)[C@@H]([C@H](C)CC)NC(=O)[C@H](NC(=O)[C@H](NC(=O)[C@H](CCCN)NC(=O)[C@H]2CCCN2C(=O)[C@H](NC(=O)[C@@H](NC(=O)[C@@H](NC(=O)[C@H](NC(=O)CCCCC(C)=O)C(C)C)[C@@H](C)O)C(C)C)C(C)C)[C@H](C)CC)[C@H](C)OC(=O)[C@H](C(C)C)NC1=O; 638
C/C=C1\NC(=O)[C@H](Cc2ccccc2)NC(=O)[C@@H](C(C)C)NC(=O)[C@@H]([C@H](C)CC)NC(=O)[C@H](NC(=O)[C@H](NC(=O)[C@H](CCCN)NC(=O)[C@H]2CCCN2C(=O)[C@H](NC(=O)[C@@H](NC(=O)[C@@H](NC(=O)[C@H](NC(=O)c2ccc(C)cc2)C(C)C)[C@@H](C)O)C(C)C)C(C)C)[C@H](C)CC)[C@H](C)OC(=O)[C@H](C(C)C)NC1=O; 422

The record that follows has no CC50 shown yet.
Please supply the value of reported CC50 for the item C/C=C1\NC(=O)[C@H](Cc2ccccc2)NC(=O)[C@@H](C(C)C)NC(=O)[C@@H]([C@H](C)CC)NC(=O)[C@H](NC(=O)[C@H](NC(=O)[C@H](CCCN)NC(=O)[C@H]2CCCN2C(=O)[C@H](NC(=O)[C@@H](NC(=O)[C@@H](NC(=O)CNC(=O)CCCC(C)C)[C@@H](C)O)C(C)C)C(C)C)[C@H](C)CC)[C@H](C)OC(=O)[C@H](C(C)C)NC1=O
1200

----------
Below, each of the compounds is paired with its reported CC50 value.
System: SK-BR-3
Assay: Cytotoxicity against human SKBR3 cells after 48 hrs by SRB assay
Type: functional
Conditions: SK-BR-3, 48 h, read-out: LC50 (the source's name)

# count of solved cases: 4
CC[C@@H](C)[C@@H](NC(=O)[C@H](CCCN)NC(=O)[C@H]1CCCN1C(=O)[C@H](NC(=O)[C@@H](NC(=O)[C@@H](NC(=O)[C@H](NC(=O)CCCC(C)C)C(C)C)[C@@H](C)O)C(C)C)C(C)C)C(=O)N[C@H]1C(=O)N[C@H]([C@H](C)CC)C(=O)N[C@H](C(C)C)C(=O)N[C@@H](Cc2ccccc2)C(=O)N/C(=C\c2ccccc2)C(=O)N[C@@H](C(C)C)C(=O)O[C@H]1C; 806 nM
C/C=C1\NC(=O)[C@H](Cc2ccccc2)NC(=O)[C@@H](C(C)C)NC(=O)[C@@H]([C@H](C)CC)NC(=O)[C@H](NC(=O)[C@H](NC(=O)[C@H](CCCN)NC(=O)[C@H]2CCCN2C(=O)[C@H](NC(=O)[C@@H](NC(=O)[C@@H](NC(=O)[C@H](NC(=O)c2ccc(C(F)(F)F)cc2)C(C)C)[C@@H](C)O)C(C)C)C(C)C)[C@H](C)CC)[C@H](C)OC(=O)[C@H](C(C)C)NC1=O; 223 nM
C/C=C1\NC(=O)[C@@H](Cc2ccccc2)NC(=O)[C@H](C(C)C)NC(=O)[C@H]([C@H](C)CC)NC(=O)[C@@H](NC(=O)[C@@H](NC(=O)[C@@H](CCCN)NC(=O)[C@@H]2CCCN2C(=O)[C@@H](NC(=O)[C@H](NC(=O)[C@H](NC(=O)[C@@H](NC(=O)CCCC(C)C)C(C)C)[C@@H](C)O)C(C)C)C(C)C)[C@H](C)CC)[C@H](C)OC(=O)[C@H](C(C)C)NC1=O; 1690 nM
C/C=C1\NC(=O)[C@H](Cc2ccccc2)NC(=O)[C@@H](C(C)C)NC(=O)[C@@H]([C@H](C)CC)NC(=O)[C@H](NC(=O)[C@H](NC(=O)[C@H](CCCN)NC(=O)[C@H]2CCCN2C(=O)[C@H](NC(=O)[C@@H](NC(=O)[C@@H](NC(=O)[C@H](NC(=O)C(F)(F)C(F)(F)C(F)(F)C(F)(F)C(F)(F)C(F)(F)F)C(C)C)[C@@H](C)O)C(C)C)C(C)C)[C@H](C)CC)[C@H](C)OC(=O)[C@H](C(C)C)NC1=O; 578 nM

Then there is this compound:
State CC50 (SK-BR-3) of C/C=C1\NC(=O)[C@H](Cc2ccc(F)c(F)c2)NC(=O)[C@@H](C(C)C)NC(=O)[C@@H]([C@H](C)CC)NC(=O)[C@H](NC(=O)[C@H](NC(=O)[C@H](CCCN)NC(=O)[C@H]2CCCN2C(=O)[C@H](NC(=O)[C@@H](NC(=O)[C@@H](NC(=O)[C@H](NC(=O)CCCC(C)C)C(C)C)[C@@H](C)O)C(C)C)C(C)C)[C@H](C)CC)[C@H](C)OC(=O)[C@H](C(C)C)NC1=O .
134 nM

----------
System: LoVo
Experiment: Cytotoxicity against human doxorubicin resistant LoVo cells after 48 hrs by SRB assay
Format: functional
So basically: is GI50 under 200 nM? Then true. Not under? Then false.

Answered cases to consult:
C/C=C1\NC(=O)[C@H](Cc2ccccc2)NC(=O)[C@@H](C(C)C)NC(=O)[C@@H]([C@H](C)CC)NC(=O)[C@H](NC(=O)[C@H](NC(=O)[C@H](CCCN)NC(=O)[C@H]2CCCN2C(=O)[C@H](NC(=O)[C@@H](NC(=O)[C@@H](NC(=O)[C@H](NC(=O)CC[C@@H](C)CC)C(C)C)[C@@H](C)OC(=O)C(F)(F)F)C(C)C)C(C)C)[C@H](C)CC)[C@H](C)OC(=O)[C@H](C(C)C)NC1=O; true
C/C=C1\NC(=O)[C@H](Cc2ccccc2)NC(=O)[C@@H](C(C)C)NC(=O)[C@@H]([C@H](C)CC)NC(=O)[C@H](NC(=O)[C@H](NC(=O)[C@H](CCCN)NC(=O)[C@H]2CCCN2C(=O)[C@H](NC(=O)[C@@H](NC(=O)[C@@H](NC(=O)[C@H](NC(=O)CC[C@@H](C)CC)C(C)C)[C@@H](C)O)C(C)C)C(C)C)[C@H](C)CC)[C@H](C)OC(=O)[C@H](C(C)C)NC1=O; false
C/C=C1\NC(=O)[C@H](Cc2ccccc2)NC(=O)[C@@H](C(C)C)NC(=O)[C@@H]([C@H](C)CC)NC(=O)[C@H](NC(=O)[C@H](NC(=O)[C@H](CCCNC(=O)/C=C/CCC)NC(=O)[C@H]2CCCN2C(=O)[C@H](NC(=O)[C@@H](NC(=O)[C@@H](NC(=O)[C@H](NC(=O)CCCC(C)C)C(C)C)[C@@H](C)O)C(C)C)C(C)C)[C@H](C)CC)[C@H](C)OC(=O)[C@H](C(C)C)NC1=O; true
C/C=C1\NC(=O)[C@H](c2ccccc2)NC(=O)[C@@H](C(C)C)NC(=O)[C@@H]([C@H](C)CC)NC(=O)[C@H](NC(=O)[C@H](NC(=O)[C@H](CCCN)NC(=O)[C@H]2CCCN2C(=O)[C@H](NC(=O)[C@@H](NC(=O)[C@@H](NC(=O)[C@H](NC(=O)CCCC(C)C)C(C)C)[C@@H](C)O)C(C)C)C(C)C)[C@H](C)CC)[C@H](C)OC(=O)[C@H](C(C)C)NC1=O; false
C/C=C1\NC(=O)[C@H](Cc2cccs2)NC(=O)[C@@H](C(C)C)NC(=O)[C@@H]([C@H](C)CC)NC(=O)[C@H](NC(=O)[C@H](NC(=O)[C@H](CCCN)NC(=O)[C@H]2CCCN2C(=O)[C@H](NC(=O)[C@@H](NC(=O)[C@@H](NC(=O)[C@H](NC(=O)CC[C@@H](C)CC)C(C)C)[C@@H](C)O)C(C)C)C(C)C)[C@H](C)CC)[C@H](C)OC(=O)[C@H](C(C)C)NC1=O; false

Please determine if C/C=C1\NC(=O)[C@H](Cc2ccccc2)NC(=O)[C@@H](C(C)C)NC(=O)[C@@H]([C@H](C)CC)NC(=O)[C@H](NC(=O)[C@H](NC(=O)[C@H](CCCN)NC(=O)[C@H]2CCCN2C(=O)[C@H](NC(=O)[C@@H](NC(=O)[C@@H](NC(=O)[C@H](NC(=O)CCCC(C)C)C(C)C)[C@@H](C)O)C(C)C)C(C)C)[C@H](C)CC)[C@@H](C)OC(=O)[C@H](C(C)C)NC1=O is below 200 nM in terms of GI50.
false

State whether 200 nM exceeds GI50 recorded for C=C1NC(=O)[C@H](Cc2ccccc2)NC(=O)[C@@H](C(C)C)NC(=O)[C@@H]([C@H](C)CC)NC(=O)[C@H](NC(=O)[C@H](NC(=O)[C@H](CCCN)NC(=O)[C@H]2CCCN2C(=O)[C@H](NC(=O)[C@@H](NC(=O)[C@@H](NC(=O)[C@H](NC(=O)CCCC(C)C)C(C)C)[C@@H](C)O)C(C)C)C(C)C)[C@H](C)CC)[C@H](C)OC(=O)[C@H](C(C)C)NC1=O .
false

Strictly below 200 nM in GI50? CC[C@@H](C)[C@@H](NC(=O)[C@H](CCCN)NC(=O)[C@H]1CCCN1C(=O)[C@H](NC(=O)[C@@H](NC(=O)[C@@H](NC(=O)[C@H](NC(=O)CCCC(C)C)C(C)C)[C@@H](C)O)C(C)C)C(C)C)C(=O)N[C@H]1C(=O)N[C@H]([C@H](C)CC)C(=O)N[C@H](C(C)C)C(=O)N[C@@H](Cc2ccccc2)C(=O)NCC(=O)N[C@@H](C(C)C)C(=O)O[C@H]1C
false
